In this section, each of the molecules is paired with its reported solubility.
experiment: Solubility in PBS of hard block degradation products; assay type: physicochemical; conditions: aqueous buffer

Would you please look over these solved cases?
NCCCCCCNC(=O)NCCCCCCN [Example 25E, 1,3-bis-(6-aminohexyl)urea] : > 5000 µg/mL
NCCCCNC(=O)CCCCC(=O)NCCCCN [Example 25D, N^1,N^6-bis(4-aminobutyl)adipamide] : > 5000 µg/mL

Next up:
[ask] Determine from records and report solubility for NCCCCCNC(=O)CCCCCN [Example 25C, 6-amino-N-(5-aminopentyl)hexanamide]
[reply] > 5000 µg/mL

The reported numbers originate from patent US10556994B2.
